We begin with a simple list: items and their reported hERG IC20/TLR7 IC50.
# EXPERIMENTAL_SYSTEM: hERG channel (Homo sapiens)
# Construct: expressed in transfected cells; host or cells: CHO (Chinese hamster ovary)
# Sequence (Q12809 whole entry): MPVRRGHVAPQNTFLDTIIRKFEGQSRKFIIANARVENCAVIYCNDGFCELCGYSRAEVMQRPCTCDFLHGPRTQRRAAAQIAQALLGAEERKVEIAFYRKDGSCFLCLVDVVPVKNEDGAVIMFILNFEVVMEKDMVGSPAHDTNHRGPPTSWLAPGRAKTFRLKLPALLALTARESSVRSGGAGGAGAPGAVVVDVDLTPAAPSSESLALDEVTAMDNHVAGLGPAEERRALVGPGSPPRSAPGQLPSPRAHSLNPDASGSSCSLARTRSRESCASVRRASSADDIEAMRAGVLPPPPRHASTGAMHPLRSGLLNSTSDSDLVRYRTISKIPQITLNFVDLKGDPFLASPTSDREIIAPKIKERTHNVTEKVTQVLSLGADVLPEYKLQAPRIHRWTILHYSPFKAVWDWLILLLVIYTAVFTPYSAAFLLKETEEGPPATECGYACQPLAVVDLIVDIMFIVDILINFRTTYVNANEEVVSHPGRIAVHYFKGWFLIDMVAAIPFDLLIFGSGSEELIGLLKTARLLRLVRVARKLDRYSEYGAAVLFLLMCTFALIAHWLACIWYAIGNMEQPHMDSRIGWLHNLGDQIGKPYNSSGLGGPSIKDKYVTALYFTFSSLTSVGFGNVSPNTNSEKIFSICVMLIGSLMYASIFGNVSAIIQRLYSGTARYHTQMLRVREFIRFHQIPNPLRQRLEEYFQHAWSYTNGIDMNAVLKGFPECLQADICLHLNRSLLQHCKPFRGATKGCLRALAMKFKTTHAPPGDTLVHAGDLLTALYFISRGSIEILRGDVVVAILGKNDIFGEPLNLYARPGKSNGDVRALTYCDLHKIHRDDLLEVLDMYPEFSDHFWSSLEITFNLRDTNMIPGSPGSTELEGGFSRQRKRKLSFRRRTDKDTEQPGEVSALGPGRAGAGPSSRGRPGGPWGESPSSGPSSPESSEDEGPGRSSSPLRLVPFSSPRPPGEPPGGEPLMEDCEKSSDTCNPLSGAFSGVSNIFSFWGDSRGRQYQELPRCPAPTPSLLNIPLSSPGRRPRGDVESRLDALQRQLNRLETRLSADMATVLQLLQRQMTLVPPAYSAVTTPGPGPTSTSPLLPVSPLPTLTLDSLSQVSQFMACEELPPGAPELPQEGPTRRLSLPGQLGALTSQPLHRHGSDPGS
# ASSAY_NOTES: hERG channel inhibition assay (patch-clamp, CHOhERG cells)
# Format: cell-based
# CONDITIONS_USED: safety ratio
# Description: hERG Channel Inhibition Assay: The hERG K^+ channels were cloned in humans and stably expressed in a CHO (Chinese hamster ovary) cell line. CHOhERG cells were used for patch-clamp (voltage-clamp, whole-cell) experiments. […] After the cells were stabilized for a few minutes, the amplitude and kinetics of IKhERG were recorded at a stimulation frequency of 0.1 Hz, (6 bpm). […]
PROPERTY: hERG IC20/TLR7 IC50

C[C@@H]1CN(c2ccc(C#N)c3ncccc23)C[C@H](CN2CCN(c3ccc(Cl)cc3)CC2)O1 [Example R2, reference compound] = 1.3
CO[C@@H]1CN(c2ccc(N3CCN(C[C@H]4CN(c5ccc(C#N)n6ncc(F)c56)C[C@@H](C)O4)CC3)cn2)C[C@H]1N = 380
C[C@@H]1CN(c2ccc(C#N)c3ncccc23)C[C@H](CN2CCN(c3ccccn3)CC2)O1 [ER-888285, reference compound] = 8.4

// provenance: patent US20210395239A1
